From: patent US20240424111A1

system tested: PTPN2 (Mus musculus)
Construct: HiBiT; host or cells: B16F10.4
procedure text: HiBiT PTPN2 degradation in B16F10.4 cells, 24 hours
Format: cell-based
Some molecules, each annotated with its measured DC50.

The examples below pair each entry with its known result.
| molecule | DC50 |
| --- | --- |
| Cn1c(=O)n(C2CCC(=O)NC2=O)c2ccc(-c3ccc(CC(=O)Nc4ccc5c(F)c(N6CC(=O)NS6(=O)=O)c(O)cc5c4)cc3)cc21 (stereo not drawn) [Degrader 25] | < 50 nM |
| Cn1c(=O)n(C2CCC(=O)NC2=O)c2ccc(N3CCC(CC(=O)Nc4ccc5c(F)c(N6CC(=O)NS6(=O)=O)c(O)cc5c4)CC3)cc21 (stereo not drawn) [Degrader 147] | 150 to 500 nM |

Fill blank: measured DC50 of the molecule Cn1c(=O)n(C2CCC(=O)NC2=O)c2ccc(C3CCN(CCC(C)(C)CCOc4ccc5cc(O)c(N6CC(=O)NS6(=O)=O)c(F)c5c4)CC3)cc21 (stereo not drawn) [Degrader 7] is ____. 150 to 500 nM

====

system tested: PTPN2 (Mus musculus)
Construct: HiBiT; host or cells: B16F10.4
Sequence (Q06180 1-406): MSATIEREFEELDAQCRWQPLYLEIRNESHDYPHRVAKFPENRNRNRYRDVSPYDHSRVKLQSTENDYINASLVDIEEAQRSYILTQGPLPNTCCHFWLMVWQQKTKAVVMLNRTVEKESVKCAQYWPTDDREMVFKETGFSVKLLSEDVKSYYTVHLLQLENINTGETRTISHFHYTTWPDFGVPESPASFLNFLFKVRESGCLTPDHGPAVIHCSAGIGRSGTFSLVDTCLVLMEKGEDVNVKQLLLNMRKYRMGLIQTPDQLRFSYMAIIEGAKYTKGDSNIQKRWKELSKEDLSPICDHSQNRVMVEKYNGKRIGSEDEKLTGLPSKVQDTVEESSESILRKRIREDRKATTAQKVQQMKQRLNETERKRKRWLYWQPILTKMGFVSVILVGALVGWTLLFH
procedure text: HiBiT PTPN2 degradation in B16F10.4 cells, 24 hours
Assay type: cell-based
measure: DC50

The examples below pair each entry with its known result.
| molecule | DC50 |
| --- | --- |
| COc1cc(CC(=O)Nc2ccc3c(F)c(N4CC(=O)NS4(=O)=O)c(O)cc3c2)ccc1-c1ccc2c(c1)n(C)c(=O)n2C1CCC(=O)NC1=O (stereo not drawn) | 150 to 500 nM |
| Cn1c(=O)n(C2CCC(=O)NC2=O)c2ccc(Nc3cccc(CC(=O)Nc4ccc5c(F)c(N6CC(=O)NS6(=O)=O)c(O)cc5c4)c3)cc21 (stereo not drawn) | 50 to 150 nM |
| CCn1c(=O)n(C2CCC(=O)NC2=O)c2ccc(-c3ccc(CC(=O)Nc4ccc5c(F)c(N6CC(=O)NS6(=O)=O)c(O)cc5c4)cc3F)cc21 (stereo not drawn) | < 50 nM |
| CCn1c(=O)n(C2CCC(=O)NC2=O)c2ccc(C3CCN([C@H](CO)C(=O)Nc4ccc5c(F)c(N6CC(=O)NS6(=O)=O)c(O)cc5c4)CC3)cc21 (stereo partly drawn) | < 50 nM |
| C[C@@H]1CN(CC(=O)Nc2ccc3c(F)c(N4CC(=O)NS4(=O)=O)c(O)cc3c2)CCN1c1ccc2c(c1F)n(C)c(=O)n2C1CCC(=O)NC1=O (stereo partly drawn) | 150 to 500 nM |

Then there is this molecule:
DC50 of Cn1c(=O)n(C2CCC(=O)NC2=O)c2ccc(C3=CCC(CC(=O)Nc4ccc5c(F)c(N6CC(=O)NS6(=O)=O)c(O)cc5c4)CC3)cc21 (stereo not drawn) on PTPN2 (Mus musculus)? 50 to 150 nM

====

system tested: PTPN2 (Homo sapiens)
Construct: expressed in transfected cells; host or cells: 293T.109 (HiBiT-PTPN2), derived from 293T WT (ATCC)
Sequence (P17706 whole entry): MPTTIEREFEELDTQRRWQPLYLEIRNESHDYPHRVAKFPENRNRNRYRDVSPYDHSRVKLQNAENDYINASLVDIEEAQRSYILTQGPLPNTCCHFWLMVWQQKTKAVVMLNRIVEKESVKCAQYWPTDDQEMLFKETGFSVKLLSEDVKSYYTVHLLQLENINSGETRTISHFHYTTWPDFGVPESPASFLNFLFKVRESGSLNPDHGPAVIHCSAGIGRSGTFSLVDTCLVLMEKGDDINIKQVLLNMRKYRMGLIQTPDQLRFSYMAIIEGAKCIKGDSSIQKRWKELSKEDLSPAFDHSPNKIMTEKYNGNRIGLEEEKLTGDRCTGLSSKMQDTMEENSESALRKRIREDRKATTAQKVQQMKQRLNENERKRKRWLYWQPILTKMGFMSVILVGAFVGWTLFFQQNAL
procedure text: HiBiT PTPN2 degradation in 293T.109 (HiBiT-PTPN2) cells, 24 hours
Assay type: cell-based
test parameters: 293T.109 cells
measure: DC50

The examples below pair each entry with its known result.
| compound | DC50 |
| --- | --- |
| Cn1c(=O)n(C2CCC(=O)NC2=O)c2ccc(N3CCC(O)(CC(=O)N4CC[C@@H](c5ccc6cc(O)c(N7CC(=O)NS7(=O)=O)c(F)c6c5)C4)CC3)cc21 (stereo partly drawn) | ≥ 0.5 µM |
| Cn1c(=O)n(C2CCC(=O)NC2=O)c2ccc(-c3ccn(CC(=O)Nc4ccc5c(F)c(N6CC(=O)NS6(=O)=O)c(O)cc5c4)n3)cc21 (stereo not drawn) | 0.15 to 0.5 µM |

Fill blank: measured DC50 of the compound Cn1c(=O)n(C2CCC(=O)NC2=O)c2ccc(-n3cc(CC(=O)Nc4ccc5c(F)c(N6CC(=O)NS6(=O)=O)c(O)cc5c4)cn3)cc21 (stereo not drawn) is ____. 0.15 to 0.5 µM

Fill blank: measured DC50 of the compound Cn1c(=O)n(C2CCC(=O)NC2=O)c2ccc(N3CCC(CNC(=O)Nc4ccc5c(F)c(N6CC(=O)NS6(=O)=O)c(O)cc5c4)CC3)cc21 (stereo not drawn) is ____. 0.05 to 0.15 µM

Fill blank: measured DC50 of the compound Cn1nc(N2CCC(=O)NC2=O)c2cc(F)c(N3CCC(CC(=O)Nc4ccc5c(F)c(N6CC(=O)NS6(=O)=O)c(O)cc5c4)CC3)cc21 [Degrader 134] is ____. 0.05 to 0.15 µM

Fill blank: measured DC50 of the compound Cn1c(=O)n(C2CCC(=O)NC2=O)c2ccc(N3CCN(CNC(=O)Nc4ccc5c(F)c(N6CC(=O)NS6(=O)=O)c(O)cc5c4)CC3)cc21 (stereo not drawn) is ____. 0.05 to 0.15 µM

Fill blank: measured DC50 of the compound Cn1c(=O)n(C2CCC(=O)NC2=O)c2ccc(Nc3ccc(CC(=O)Nc4ccc5c(F)c(N6CC(=O)NS6(=O)=O)c(O)cc5c4)cc3F)cc21 (stereo not drawn) is ____. 0.05 to 0.15 µM

Fill blank: measured DC50 of the compound Cn1c(=O)n(C2CCC(=O)NC2=O)c2ccc(N3CCCC(CC(=O)Nc4ccc5c(F)c(N6CC(=O)NS6(=O)=O)c(O)cc5c4)CC3)cc21 (stereo not drawn) is ____. 0.05 to 0.15 µM

Fill blank: measured DC50 of the compound Cn1c(=O)n(C2CCC(=O)NC2=O)c2ccc(N3CCC(CC(=O)Nc4ccc5c(F)c(N6CC(=O)NS6(=O)=O)c(O)cc5c4)CC3)c(F)c21 (stereo not drawn) is ____. 0.05 to 0.15 µM

Fill blank: measured DC50 of the compound C[C@H]1CN(CC(=O)Nc2ccc3c(F)c(N4CC(=O)NS4(=O)=O)c(O)cc3c2)CCN1c1ccc2c(c1)n(C)c(=O)n2C1CCC(=O)NC1=O (stereo partly drawn) is ____. 0.15 to 0.5 µM

Fill blank: measured DC50 of the compound Cn1c(=O)n(C2CCC(=O)NC2=O)c2cc(F)c(N3CCC(O)(CC(=O)Nc4ccc5c(F)c(N6CC(=O)NS6(=O)=O)c(O)cc5c4)CC3)cc21 (stereo not drawn) is ____. < 0.05 µM

Fill blank: measured DC50 of the compound Cn1c(=O)n(C2CCC(=O)NC2=O)c2ccc(N3CCC(O)(CC(=O)N4CC[C@H](c5ccc6cc(O)c(N7CC(=O)NS7(=O)=O)c(F)c6c5)C4)CC3)cc21 (stereo partly drawn) is ____. 0.15 to 0.5 µM

====

system tested: PTPN2 (Homo sapiens)
Construct: expressed in transfected cells; host or cells: 293T.109 (HiBiT-PTPN2), derived from 293T WT (ATCC)
procedure text: HiBiT PTPN2 degradation in 293T.109 (HiBiT-PTPN2) cells, 24 hours
Assay type: cell-based
test parameters: 293T.109 cells
measure: DC50

The examples below pair each entry with its known result.
| molecule | assay value |
| --- | --- |
| Cn1c(=O)n(C2CCC(=O)NC2=O)c2ccc([C@@H]3CCN(CC(=O)Nc4ccc5c(F)c(N6CC(=O)NS6(=O)=O)c(O)cc5c4)C[C@H]3F)cc21 (stereo partly drawn) | < 50 nM |
| Cn1c(=O)n(C2CCC(=O)NC2=O)c2ccc(Nc3cccc(CC(=O)Nc4ccc5c(F)c(N6CC(=O)NS6(=O)=O)c(O)cc5c4)c3)cc21 (stereo not drawn) | < 50 nM |
| Cn1c(=O)n(C2CCC(=O)NC2=O)c2ccc([C@H]3CN(CC(=O)Nc4ccc5c(F)c(N6CC(=O)NS6(=O)=O)c(O)cc5c4)CC[C@@H]3F)cc21 (stereo partly drawn) | 150 to 500 nM |
| Cn1c(=O)n(C2CCC(=O)NC2=O)c2ccc(-c3cccc(CC(=O)Nc4ccc5c(F)c(N6CC(=O)NS6(=O)=O)c(O)cc5c4)c3)cc21 (stereo not drawn) | 150 to 500 nM |
| CC(C)n1nc(C2CCC(=O)NC2=O)c2ccc(C3CCN(CC(=O)N4CC(Oc5ccc6cc(O)c(N7CC(=O)NS7(=O)=O)c(F)c6c5)C4)CC3(F)F)cc21 (stereo not drawn) | 50 to 150 nM |

Then there is this molecule:
Fill blank: measured DC50 of the molecule Cn1c(=O)n(C2CCC(=O)NC2=O)c2ccc(-c3ccc(CC(=O)Nc4ccc5c(F)c(N6CC(=O)NS6(=O)=O)c(O)cc5c4)cc3F)c(F)c21 (stereo not drawn) is ____. 150 to 500 nM
